# assay_explanation: NCI Yeast Anticancer Drug Screen. Data for the cln2 rad14 strain (AID 165);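 also: 0% = growth equal to vehicle treated cultures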
# condition_label: S. cerevisiae cln2 rad14 strain, hits give high values; at 50.0 µM unless noted
Compounds without any hit were thinned out: in the full panel of roughly 79,000, 15% have a hit.
measured_parameter: growth inhibition (%)
Numeric answer only, unit % assumed.

Reference set, count: 5
>>> data_value("Nc1nnc2nc(C3(c4nc5nnc(N)n5[nH]c4=O)CCCC3=O)c(=O)[nH]n12")
3.45
>>> data_value("NC(=O)c1ccccc1OC(=O)Nc1ccc(F)c([N+](=O)[O-])c1")
-1.95
>>> data_value("COC(=O)C(Cc1nc2ccc(Cl)cc2[nH]c1=O)/C(=N\\N)C(=O)Nc1cc(C)c(Cl)cc1S(=O)(=O)O (stereo unspecified)")
-70.3
>>> data_value("Cc1ccc(-c2ccc(C)cc2C(=O)O)c(C(=O)O)c1")
-28.1
>>> data_value("O=C1OC2(CCCCC2)OC1c1ccccc1 (stereo unspecified)")
10.5

Kindly consider the entry below.
Please fill in: growth inhibition reported for CCN(CCN1CCCCC1)c1ccccn1 = -35.7

###

Measured growth inhibition values are reported for all entries that follow.
# assay_explanation: NCI Yeast Anticancer Drug Screen. Data for the mec2-1 strain (AID 157)
# condition_label: S. cerevisiae mec2-1 strain, hits give high values; at 50.0 µM unless noted
The panel holds about 79,000 compounds, 15% with a hit somewhere; the sample as a whole holds those more often.
Numeric answer only, unit % assumed.

Reference set, count: 4
>>> data_value("COc1ccc2nc3cc([N+](=O)[O-])ccc3c(NCCCN(C)C)c2c1")
-1.9
>>> data_value("NC(N)=NS(=O)(=O)c1ccc(N=NC2=C(O)C(c3ccccc3)N(c3ccccc3)C2=O)cc1 (stereo unspecified)")
22.1
>>> data_value("CCCCCCCCCC(OCC)OCC")
-15.2
>>> data_value("CCOC(=S)SCC(=O)CSC(=S)OCC")
12.1

Kindly consider the entry below.
Please fill in: growth inhibition reported for COc1ccc(/C=N/NC(=S)NN)cc1 = 9.1

###

# assay_explanation: NCI Yeast Anticancer Drug Screen. Data for the cln2 rad14 strain (AID 165);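 also: 0% = growth equal to vehicle treated cultures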
# condition_label: S. cerevisiae cln2 rad14 strain; at 50.0 µM unless noted
Compounds without any hit were thinned out: in the full panel of roughly 79,000, 15% have a hit. Active and inactive are the calls of the source. No stated cut-off is given here; in the data, active means growth inhibition above about 70%; inactive means the rest. Where a SMILES comes first, the peptide text is derived from it. The star is where a group is joined. Boc = CC(C)(C)OC(=O)*; OBn = c1ccc(CO*)cc1
# valid calls are y for active, n for inactive; nothing else

See these solved cases before continuing.
>>> class_label("O=C(NC12CC3CC(CC(C3)C1)C2)C(=O)c1c[nH]c2ccc([N+](=O)[O-])cc12")
"n"
>>> class_label("CC(C)N(CC(C)(C)O)C(=O)c1ccccc1")
"n"
>>> class_label("CN(C)N=Nc1ccc(S(C)(=O)=O)cc1")
"n"
>>> class_label("CC(Sc1nc(N)nc2nc[nH]c12)C(=O)O (stereo not drawn)")
"n"
>>> class_label("O=C(O)c1nc2cn1/C=C\\C=NCC1=CN3C=CC=NC3(C(=O)O)N1C2 (stereo not drawn)")
"n"

Returns: the outcome recorded for O=c1n(-c2ccccc2)c(=O)n(-c2ccccc2)c(=O)n1-c1ccccc1 in this assay.
n

Returns: the outcome recorded for O=c1n(-c2ccccc2)c(=O)n2n1C1C3C4C5C3C2C5(F)C41 (stereo not drawn) in this assay.
n

Returns: the outcome recorded for COc1cccc(Br)n1 in this assay.
n

Returns: the outcome recorded for CC(C)CC(NC(=O)C(Cc1ccccc1)NC(=O)C(Cc1ccccc1)NC(=O)OC(C)(C)C)C(=O)OCc1ccccc1 (stereo not drawn) (Boc-Phe-Phe-Leu-OBn; configuration not given here) in this assay.
n

Returns: the outcome recorded for NN1CCN(CCO)CC1 in this assay.
n

Returns: the outcome recorded for C=C1N(C=O)C(C)(C)N(O)C1(C)C in this assay.
n

Returns: the outcome recorded for CCOc1c(N=Nc2cccc(Cl)c2)c(C)nn1C(N)=S in this assay.
n

###

# assay_explanation: NCI Yeast Anticancer Drug Screen. Data for the bub3 strain (AID 167)
# condition_label: S. cerevisiae bub3 mutant strain; at 50.0 µM unless noted
The panel holds about 79,000 compounds, 15% with a hit somewhere; the sample as a whole holds those more often. Calls of active or inactive are those of the source. No stated cut-off is given here; in the data, active means growth inhibition above about 70%; inactive means the rest.
# valid calls are active, inactive; nothing else

>>> class_label("CCCOCC[N+](C)(C)C")
"inactive"
>>> class_label("O=C1Oc2ccccc2C(=O)/C1=C/N1C(=O)N/C(=C\\c2cccc(O)c2)C1=O")
"inactive"
>>> class_label("CN1C(=O)n2c(nc3ccccc32)C(Cl)(Cl)C1=O")
"inactive"

Returns: the outcome recorded for O=C(C[n+]1ccccc1)c1ccc(O)c(I)c1 in this assay.
inactive

Returns: the outcome recorded for O=C(O)CNC(=S)SCC(=O)O in this assay.
inactive

Returns: the outcome recorded for Cc1cc(NC(=O)C(=O)Cc2nc3ccccc3s2)ccc1Cl in this assay.
inactive

Returns: the outcome recorded for COc1nc(NC2OC(COC(C)=O)C(OC(C)=O)C(OC(C)=O)C2OC(C)=O)c(N=CC=Nc2c(NC3OC(COC(C)=O)C(OC(C)=O)C(OC(C)=O)C3OC(C)=O)nc(OC)[nH]c2=O)c(=O)[nH]1 (centres undefined) in this assay.
inactive

Returns: the outcome recorded for CCOC(=O)C1=C(C)O/C(=C/c2cccc(Cl)c2)C1=O in this assay.
inactive

Returns: the outcome recorded for Brc1ccccc1C#Cc1ccccc1Br in this assay.
inactive

Returns: the outcome recorded for C#CC(C)(O)CCC(C)C (centres undefined) in this assay.
inactive

Returns: the outcome recorded for CCCCC(NC(=O)c1ccc2ccccc2n1)C(=O)O (centres undefined) in this assay.
inactive

Returns: the outcome recorded for c1ccc2nc(CCC3CCCCN3)ccc2c1 (centres undefined) in this assay.
inactive

Returns: the outcome recorded for O=[N+]([O-])c1ccc(/C=C(/c2ccc([N+](=O)[O-])o2)S(=O)(=O)c2ccccc2)cc1 in this assay.
inactive

Returns: the outcome recorded for O=C1C=C(C2=CC(=O)c3cccc(O)c3C2=O)C(=O)c2c(O)cccc21 in this assay.
inactive

Returns: the outcome recorded for CNC(=O)OCc1c(COC(=O)NC)c(C)n(-c2ccc(Cl)cc2)c1C in this assay.
active

Returns: the outcome recorded for O=c1[nH]c(C(F)(F)F)c([N+](=O)[O-])c(=O)[nH]1 in this assay.
inactive

Returns: the outcome recorded for CC(C)=CC(=O)CNC(N)=S in this assay.
inactive

Returns: the outcome recorded for CC1(C)C=C(C(c2cccc([N+](=O)[O-])c2)N2CCCCC2)C(=O)c2ccccc21 (centres undefined) in this assay.
inactive

Returns: the outcome recorded for NC(=O)c1cncn1C1OCC(O)C(O)C1O (centres undefined) in this assay.
inactive

Returns: the outcome recorded for c1cc2c(cc1CSCc1c(CSCc3ccc4c(c3)OCO4)c(CSCc3ccc4c(c3)OCO4)c(CSCc3ccc4c(c3)OCO4)c(CSCc3ccc4c(c3)OCO4)c1CSCc1ccc3c(c1)OCO3)OCO2 in this assay.
inactive

Returns: the outcome recorded for O=C1C=CC=C/C1=C1/SC(c2ccccc2)=C(O)N1c1ccccc1 in this assay.
inactive

Returns: the outcome recorded for CC(C)OC(=O)c1ccc(CCC2=CC(=O)C(Br)=CC2=O)cc1 in this assay.
inactive

Returns: the outcome recorded for O=C(N1CCN(C(=O)S(=O)(=O)c2ccccc2)CC1)S(=O)(=O)c1ccccc1 in this assay.
inactive

Returns: the outcome recorded for CCOC(=O)c1[nH]c(C)c(C#N)c1C in this assay.
inactive

###

Measured growth inhibition values are reported for all entries that follow.
# assay_explanation: NCI Yeast Anticancer Drug Screen. Data for the cln2 rad14 strain (AID 165);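 also: 0% = growth equal to vehicle treated cultures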
# condition_label: S. cerevisiae cln2 rad14 strain, hits give high values; at 50.0 µM unless noted
# Experimental: Growth inhibition of yeast strains with defined genetic alterations is measured as a screen for potential anti-cancer activity. Selected strains with alterations in DNA damage repair or cell cycle control were exposed to compounds and growth inhibition was measured relative to vehicle treated controls. The strain used in this assay is cln2 rad14
This is part of a sample that, as a whole, favours compounds with a hit. Of some 79,000 tested, about 15% had one in any assay.
Numeric answer only, unit % assumed.

>>> data_value("Cc1ccc(S(=O)(=O)Oc2ccc3oc4cccc(NCCN(C)C)c4c(=O)c3c2)cc1")
5
>>> data_value("Cc1cc2ccccc2n1/C=C/C1=[N+](C)c2ccccc2C1(C)C")
-38.9
>>> data_value("COC(=O)C1=Nc2c(C)nn(-c3ccccc3)c2N=C(c2ccc([N+](=O)[O-])cc2)C1")
-67.1
>>> data_value("NCC(O)C(O)C(O)CO (configuration not stated)")
-20
>>> data_value("O=C(OC1OCC(OCc2ccccc2)C(OCc2ccccc2)C1OCc1ccccc1)c1ccccc1 (configuration not stated)")
-24.3

Please fill in: growth inhibition reported for C[Si](C)(C)OC1CC(=O)OC1n1cc(F)c(=O)[nH]c1=O (configuration not stated) = -1.15

Please fill in: growth inhibition reported for Oc1ccccc1C1CCCC1 = 3.7

Please fill in: growth inhibition reported for Cn1nc2ccc3nccc(N4CCN(CCO)CC4)c3c2n1 = -17.1
